tested on: SK-OV-3 ovarian; experiment: NCI-60 one-dose screen, 48 h; conditions: 10 µM
About 83,000 compounds went through this panel and 20% of them were active in at least one assay; those are over-represented in the sample as a whole. Activity calls are given as the source filed them. How the source made its calls: active means growth percent below 10; inactive means the rest.
A correct response names exactly one class from active, inactive

O=C(NCCNC(=O)c1ccc(F)cc1)Nc1ccc(-n2cc(-c3ccncc3)c(-c3ccc(Cl)c(O)c3)n2)cc1    active
COc1ccc(/C(=N\N)C(=O)c2ccccc2)cc1 (tested in a mixture with another compound)    inactive
NC(N)=N/N=C(\N=Nc1ccccc1)c1ccc(Cl)cc1    inactive

Qu. Which result was noted for this compound in the test: CN(C)CCCOc1ccc(OCCCN(C)C)c2c1C(=O)c1ccccc1C2=O
Ans. inactive

Qu. Answer briefly: the call reported for COc1ccc(C(=O)c2ccccc2CN2C(=O)c3ccccc3C2=O)cc1 in this assay.
Ans. inactive

Qu. // param item: O=C(CCNC(=O)c1nc(-c2ccccc2)n(-c2ccc(Cl)cc2)n1)NO ; yields the recorded call
Ans. inactive

Qu. Record request — test call for O=C1/C=C/[C@@H](O)[C@@H]2C[C@@H](O)C[C@H]2/C=C/CCC[C@@H](C(F)(F)F)O1
Ans. inactive

Qu. Hi, sorry to bother you, what did the test record for Cc1ccc(NCCN(C)CC(C)O)c2c(=O)c3ccccc3sc12 (configuration not stated) ?
Ans. inactive

Qu. What call does the record list for COc1ccc(-c2csc(NC(=O)c3ccc(Cc4n[nH]c(=O)c5cccnc45)cc3)n2)cc1 ?
Ans. inactive
